// endpoint pEC50 / system Estrogen receptor (Homo sapiens)
pEC50: −log10 of the molar value.
measured.metric: pEC50

{"line.notation": "O/N=C/c1c(O)ccc(-c2ccc(O)cc2)c1-c1ccc(O)cc1", "target.entity": "Estrogen receptor (Homo sapiens)", "measured.metric": "pEC50", "measured.value": 9.52}

I. O/N=C/c1c(O)ccc(-c2ccc(O)cc2)c1Cl
II. O/N=C/c1c(O)ccc(-c2ccc(O)c(F)c2)c1Cl
input: For the pair I and II , which entry has the numerically smaller recorded pEC50? State your choice using its label.
output: II
(II: 8.08, I: 9.24)

----------
biological target: Estrogen receptor beta (Homo sapiens); assay: Displacement of [3H]-estradiol from human full-length ERbeta receptor by competitive radiometric binding assay relative to estradiol
measured.metric: RBA (%)

{"line.notation": "O/N=C/c1c(O)ccc(-c2ccc(O)cc2)c1Cl", "measured.value": 130}

A. O/N=C/c1c(O)ccc(-c2ccc(O)c(F)c2)c1Cl
B. O/N=C/c1ccc(-c2ccc(O)cc2)c(-c2ccc(O)cc2)c1O
input: Of A and B , whose reported RBA is the larger number? State your choice using its label.
output: A
(A: 87.1%, B: 0.35%)

I. Cc1cc(-c2ccc(O)cc2)c(Cl)c(/C=N/O)c1O
II. Cc1c(-c2ccc(O)cc2)cc(Cl)c(O)c1/C=N/O
III. Cc1c(-c2ccc(O)c(F)c2)cc(Cl)c(O)c1/C=N/O
IV. O/N=C/c1c(O)ccc(-c2ccc(O)cc2)c1-c1ccc(O)cc1
input: Ascending sort, RBA. Form field (ranking): labels in requested order.
output: I, III, II, IV
(I: 0.64%, III: 7.9%, II: 15.8%, IV: 101%)

----------
target: Estrogen receptor beta (Homo sapiens, UniProt Q92731)
Sequence (Q92731 whole entry): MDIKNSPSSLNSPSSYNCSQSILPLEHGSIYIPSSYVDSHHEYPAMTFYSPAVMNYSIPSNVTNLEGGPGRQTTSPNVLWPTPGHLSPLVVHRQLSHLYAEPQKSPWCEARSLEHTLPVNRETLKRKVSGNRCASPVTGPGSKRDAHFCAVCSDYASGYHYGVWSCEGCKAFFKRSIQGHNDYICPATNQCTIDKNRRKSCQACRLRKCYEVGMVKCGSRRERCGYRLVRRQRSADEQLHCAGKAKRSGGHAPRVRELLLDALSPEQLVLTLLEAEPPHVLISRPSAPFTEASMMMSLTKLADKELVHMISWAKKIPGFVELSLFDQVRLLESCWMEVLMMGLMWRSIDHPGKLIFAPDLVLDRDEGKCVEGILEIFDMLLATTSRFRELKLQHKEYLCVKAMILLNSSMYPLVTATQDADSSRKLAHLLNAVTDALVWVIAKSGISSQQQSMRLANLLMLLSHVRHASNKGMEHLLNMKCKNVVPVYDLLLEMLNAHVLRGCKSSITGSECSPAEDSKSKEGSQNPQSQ
pEC50: −log10 of the molar value.
measured.metric: pEC50

I. O/N=C/c1c(O)ccc(-c2ccc(O)cc2)c1-c1ccc(O)cc1
II. O/N=C/c1c(O)ccc(-c2ccc(O)cc2)c1Cl
III. O/N=C/c1c(O)ccc(-c2ccc(O)c(F)c2)c1Cl
input: Sort by pEC50 with smallest numbers at the start of the list. Form field (ranking): labels in requested order.
output: III, I, II

----------
Target: Estrogen receptor (Homo sapiens) (UniProt P03372)
Sequence (whole entry): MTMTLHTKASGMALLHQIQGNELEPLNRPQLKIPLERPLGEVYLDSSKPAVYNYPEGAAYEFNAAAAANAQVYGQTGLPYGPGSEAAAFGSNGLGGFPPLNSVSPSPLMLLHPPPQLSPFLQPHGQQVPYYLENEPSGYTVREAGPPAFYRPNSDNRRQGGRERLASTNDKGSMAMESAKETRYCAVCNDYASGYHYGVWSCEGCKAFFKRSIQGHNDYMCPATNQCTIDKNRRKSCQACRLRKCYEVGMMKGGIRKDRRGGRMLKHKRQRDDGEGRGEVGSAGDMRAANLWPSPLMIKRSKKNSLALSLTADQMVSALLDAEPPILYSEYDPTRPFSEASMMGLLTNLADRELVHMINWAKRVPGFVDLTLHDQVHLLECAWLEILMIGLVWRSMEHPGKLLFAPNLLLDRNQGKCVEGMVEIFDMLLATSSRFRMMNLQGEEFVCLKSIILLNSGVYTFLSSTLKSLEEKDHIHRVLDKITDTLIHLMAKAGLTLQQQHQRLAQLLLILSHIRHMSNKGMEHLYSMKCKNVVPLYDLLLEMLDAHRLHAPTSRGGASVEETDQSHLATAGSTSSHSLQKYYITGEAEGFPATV
Assay: Displacement of [3H]-estradiol from human full-length ERalpha receptor by competitive radiometric binding assay relative to estradiol
measured.metric: RBA (%)

a. O/N=C/c1c(O)ccc(-c2ccc(O)cc2)c1Cl
b. O/N=C/c1c(O)ccc(-c2ccc(O)cc2)c1-c1ccc(O)cc1
c. O/N=C/c1ccc(-c2ccc(O)cc2)c(-c2ccc(O)cc2)c1O
d. Cc1c(-c2ccc(O)c(F)c2)cc(Cl)c(O)c1/C=N/O
input: Take the compounds listed above and rank them by RBA; the top slot goes to the highest value. Form field (ranking): labels in requested order.
output: b, a, c, d
(b: 88.4%, a: 4.46%, c: 0.92%, d: 0.39%)

Cited source for all entries: ChEMBL document CHEMBL1781957
